// provenance: PubChem BioAssay (NCI)

Test system: DU-145 prostate
METHOD SUMMARY: NCI tumour cell line growth inhibition, 48 h
MEASURED QUANTITY: TGI (µM)
Write the number in µM without appending the unit.

Look over these answered cases.
LINE NOTATION | TGI [µM]
NC(=S)NN=C1CSSC1 | 16.2
Cc1cc(S(=O)(=O)/N=C(/NN)NNc2cccc(C(F)(F)F)n2)c(S)cc1Cl | 34.1
Oc1ccc(Cc2cc(Cl)cc(Cl)c2O)cc1Cl | 24.4

Then there is this molecule:
Enquiry: Look up and state reported TGI for Cc1ccc(-c2cc(O)c(-c3ccc(C)cc3C)cc2O)c(C)c1
Return: 28.2
